# System: SF-539 CNS
# testDetails: NCI tumour cell line growth inhibition, 48 h
Please provide measured GI50 for the entries that follow.

Example results:
COc1cc2c(/C=C3\C(=O)Nc4ccccc43)c[nH]c2cc1C	< 13.8 nM
O=C1c2cc3c(cc2-c2c1c1cc(F)c(F)cc1c(=O)n2CCCn1ccnc1)OCO3	< 10 nM
Cn1c(COC(=O)NCCc2ccccn2)nc2c(N3CCOCC3)nc(Cl)nc21	1480 nM
CCC[CH2][Sn-]([CH2]CCC)([CH2]CCC)[O]C(=O)C(C)C	157 nM

Now, please, on to the next compound.
q: Look up GI50: C[C@@H]1C[C@@H]([C@H](O)CC2CC(=O)NC(=O)C2)C(=O)[C@@H](C)C1
a: 214 nM

* * *

# System: MDA-MB-435
# testDetails: NCI tumour cell line growth inhibition, 48 h
recordedMetric: TGI

Below, each entry is followed by its recorded TGI result.
CC(=O)NC1C(OCc2ccccc2)OC(CO)C(O)C1OC(C)C(=O)N[C@@H](C)C(=O)N[C@H](CCC(=O)NCCNCCNc1c2ccccc2nc2cccc([N+](=O)[O-])c12)C(N)=O (some centres not stated)	0.235 µM
CCOC(=O)NC(=S)N(CC(=O)c1cc(OC)c(OC)c(OC)c1)c1ccc(Cl)cc1	> 100 µM
CCN(CC)C(=S)SC(C(=O)Nc1nnc(-c2ccc(Cl)cc2)o1)c1ccccc1 (configuration not stated)	36 µM
C[C@]12CC[C@H]3[C@@H](CC=C4C[C@@H](N5CCCC5)CC[C@@]43C)[C@@H]1C[C@H](N1CCCCC1)[C@@H]2O	> 100 µM
COc1cc(C2CC(c3ccc(Nc4nc(NCCO)nc(NCCO)n4)cc3)=NN2c2cc(Cl)cc(Cl)c2)cc(OC)c1OC (configuration not stated)	3.24 µM
O=C1NC(=NCCc2ccc(Cl)cc2)S/C1=C\c1ccc2ncccc2c1	> 25 µM

Turning now to a further compound:
q: Data request, read-out TGI, for COc1cccc2c1C(=O)c1c(O)c3c(c(O)c1C2=O)C[C@@](O)(C(C)=O)CC3OC1CC(OC2CC(N)C(O)C(C)O2)C(O)C(C)O1 (some centres not stated)
a: > 100 µM

* * *

# System: ACHN renal
# testDetails: NCI tumour cell line growth inhibition, 48 h; in the data active means GI50 below about 0.43 µM; inactive means the rest
I would appreciate it if you answered using one of these outcomes: true (1) (active), false (0) (inactive)

Known results for molecules:
O=C(Nc1n[nH]c2cc(-c3cc(F)ccc3F)ccc12)C1CC1	false (0)
CN(C)CCC(=O)Nc1ccc(-n2cc(-c3cccc(NC(=S)Nc4cccc(-c5cn(-c6ccc(NC(=O)CCN(C)C)cc6)nn5)c4)c3)nn2)cc1	false (0)
C[C@@]1(F)[C@H](O)[C@@H](CO)O[C@H]1n1ccc(=O)[nH]c1=O	false (0)

q: Assay outcome for CSc1nc(Nc2cccc(NC(=O)CCl)c2)c(C#N)c(-c2cccc([N+](=O)[O-])c2)n1 : what was it?
a: false (0)

q: Would you mind telling me which call this test gave CCC[CH2][Sn-]([CH2]CCC)([CH2]CCC)[O]C(=O)C(C)C ?
a: true (1)

q: Hello, I am checking results. What call was entered for COc1ccc(-c2ccc(C3CC(c4ccccc4)=NN3)o2)c([N+](=O)[O-])c1 (configuration not stated) ?
a: false (0)

q: Please share the test call associated with Cn1c(I)c(C#C[Si](C)(C)C)c(=O)n(C(=O)c2ccccc2)c1=O .
a: false (0)

* * *

# Tested on: HL-60(TB) leukemia
# testDetails: NCI tumour cell line growth inhibition, 48 h
Returns Criterion met if the recorded TGI is greater than or equal to 30 µM, and Criterion not met otherwise.

COc1nc(Cl)nc(N[C@H](C)c2c3ccccc3cc3ccccc23)n1	Criterion met
Oc1ccc(Cl)cc1C=Nc1cnc2ccccc2c1	Criterion met
COC1CC(C)(NC(=O)C(F)(F)F)C2OC(c3ccccc3)OCC2O1 (configuration not stated)	Criterion met
Cc1cccc(C)c1NC(=O)C(=O)Cc1nc2ccccc2s1	Criterion met
O=C(CNc1ccccc1C(=O)O)Nn1cnc2ccc(S(=O)(=O)Nc3ccccc3C(=O)O)cc2c1=O	Criterion met

q: Does the compound COc1cc(N2C(=O)[C@H](Cl)C2c2ccc(SC)cc2)cc(OC)c1OC (some centres not stated) have recorded TGI that is 30 µM or more?
a: Criterion not met

q: Is it the case that CC(=O)N1[C@H](C(=O)O)CS[C@H]1c1ccc(F)cc1 has TGI reaching or exceeding 30 µM?
a: Criterion met

q: Does the reported TGI for O=C1CC23CCCCCCCCCCC2(C1)CC(=O)C3 (configuration not stated) fall at or above the 30 µM mark?
a: Criterion met

q: Entry Cc1cccc(N2C(=O)/C(=C/C(Cl)=C/c3ccc([N+](=O)[O-])cc3)SC2=S)c1C : is its TGI no less than 30 µM?
a: Criterion not met

q: Is the recorded value of TGI equal to or greater than 30 µM for this compound? CC1(C)CC(C)(C)c2cc(NC(=S)Nc3ccc([N+](=O)[O-])cc3)ccc2S1
a: Criterion met

q: Form field: TGI at least 30 µM? Entry: [N-]=[N+]=CC(=O)CCC(N)C(=O)O (configuration not stated)
a: Criterion met

q: // inclusive: TGI at least 30 µM? input: CCOc1ccc2nc(NC(=O)C(=O)C(C(=O)c3ccccc3F)C3OC(=O)c4ccccc43)sc2c1 (configuration not stated)
a: Criterion met

q: Please tell me: is the compound C/C(=N/NC(=S)Nc1ccccc1)c1nc2ccc(Cl)cc2[nH]1 at or over 30 µM in terms of TGI?
a: Criterion not met

q: Reported TGI reaches at least 30 µM for O=C1/C(=C/c2ccccc2)Oc2cc(O)ccc21 ?
a: Criterion met

q: Could you please find out whether O=C1Nc2ccccc2/C1=C\c1c(Cl)n(-c2ccccc2)c2ccccc12 has TGI that meets 30 µM or exceeds it?
a: Criterion met

q: Does the reported TGI for CC(C)(C)C#COC(=O)c1ccccc1 fall at or above the 30 µM mark?
a: Criterion met

q: Would you say Cc1c(C)c2c(c(N)c1C#N)C(=O)N(N)C2=O shows TGI at minimum 30 µM?
a: Criterion met

q: Record C[n+]1cccc2ccc3cccnc3c21 ; criterion: TGI no lower than 30 µM. Met?
a: Criterion met

q: Threshold query (TGI >= 30 µM) on CC(O)c1nc(C#N)c(N)o1 (configuration not stated)
a: Criterion met

q: Does the reported TGI for N#CCCC(C=O)(CCC#N)CCC#N fall at or above the 30 µM mark?
a: Criterion met

q: Form field: TGI at least 30 µM? Entry: COc1ccc2c(c1)C(=O)c1c-2c(OCCCN(C)C)nc2cc(Br)ccc12
a: Criterion met

q: Check the entry COC1(CC[C@@H](C)COC2OC(CO)C(O)C(O)C2O)OC2C[C@H]3[C@@H]4CC[C@H]5C[C@@H](OC6OC(CO)C(OC7OC(CO)C(O)C(O)C7O)C(O)C6OC6OC(C)C(O)C(O)C6O)[C@H](O)C[C@]5(C)[C@H]4CC[C@]3(C)C2[C@@H]1C (some centres not stated) : does TGI equal or exceed 30 µM?
a: Criterion not met

* * *

For each of the molecules below, state its TGI.
# Test system: MOLT-4 leukemia
# testDetails: NCI tumour cell line growth inhibition, 48 h
One number for each entry, in µM.

CSc1nc(Nc2cccc(NC(=O)CCl)c2)c(C#N)c(-c2cccc([N+](=O)[O-])c2)n1	6.37

q: # query: TGI | item Cn1c(COC(=O)NCCn2ccnc2)nc2c(N3CCOCC3)nc(-c3ccccc3)nc21 | system: MOLT-4 leukemia
a: 2.41

* * *

Please respond with reported TGI for every item in the list.
# Tested on: ACHN renal
# testDetails: NCI tumour cell line growth inhibition, 48 h

Cc1nc2c(Br)cc(Br)cc2c(=O)n1-c1ccccc1NC1OC(CO)C(O)C(O)C1O (stereo not drawn)	> 100 µM
CN(CCCCCl)P(=O)(OCc1ccc([N+](=O)[O-])o1)OCC1OC(n2ccc(N)nc2=O)C(O)C1O (stereo not drawn)	> 100 µM

Turning now to a further record.
q: For the molecule O=c1[nH]c(C2CCCN2)nc2c1oc1ccc(Cl)cc12 (stereo not drawn) , what TGI is on record?
a: > 100 µM

* * *

Would you kindly list TGI for each of these compounds?
# Test system: HCT-116 colon
# testDetails: NCI tumour cell line growth inhibition, 48 h

Use the examples below as a reference point.
COc1cc(O)ccc1C(=S)SC	> 100 µM
c1cnc2c(c1)-n1cccc1C1(CCCCC1)NN2	> 100 µM

q: Value lookup for TGI; key = CCOc1ccc(NC(=O)/C(CC(=O)c2c[n+](=O)c3ccccc3n2[O-])=N\OCCCc2ccccc2)cc1
a: > 100 µM

* * *

# System: HCT-116 colon
# testDetails: NCI tumour cell line growth inhibition, 48 h
Outcome label depends on TGI relative to 10 µM: at/above gives True, below gives False.

q: Quick check: does COc1cc2c(cc1OCCNC(=O)/C=C1\C[C@H]3C=Nc4cc(OCc5ccccc5)c(OC)cc4C(=O)N3C1)N=C[C@@H]1CCCN1C2=O have TGI greater than or equal to 10 µM?
a: True

q: Record O=c1c2cccnc2ncn1CCCN1CCCCC1 ; criterion: TGI no lower than 10 µM. Met?
a: True
